assayed.target: SARS-CoV-2 S-RBD/ACE2 interaction (UniProt P0DTC2+Q9BYF1)
Sequence (Q9BYF1 19-615 limits assumed, other chains not shown): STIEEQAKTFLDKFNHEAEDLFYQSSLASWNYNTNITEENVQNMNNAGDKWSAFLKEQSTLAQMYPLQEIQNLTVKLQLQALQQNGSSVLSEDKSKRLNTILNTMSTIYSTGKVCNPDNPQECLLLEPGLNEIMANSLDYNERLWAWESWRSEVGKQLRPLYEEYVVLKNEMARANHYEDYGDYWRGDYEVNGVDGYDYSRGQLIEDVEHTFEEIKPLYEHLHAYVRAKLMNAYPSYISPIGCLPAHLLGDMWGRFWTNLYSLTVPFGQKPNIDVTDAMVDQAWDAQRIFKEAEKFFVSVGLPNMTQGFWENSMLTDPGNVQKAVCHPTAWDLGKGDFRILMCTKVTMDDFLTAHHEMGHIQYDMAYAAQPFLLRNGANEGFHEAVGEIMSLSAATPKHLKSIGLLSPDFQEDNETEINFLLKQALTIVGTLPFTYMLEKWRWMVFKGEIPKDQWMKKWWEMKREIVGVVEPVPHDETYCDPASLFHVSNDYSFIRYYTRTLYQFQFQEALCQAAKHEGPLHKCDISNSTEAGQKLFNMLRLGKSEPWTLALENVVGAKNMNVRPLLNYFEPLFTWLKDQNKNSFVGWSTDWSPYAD
test.summary: cell-based
Set-up: species or system SARS-CoV-2 / human
conditions.used: HEK293; 20 μM
assay.metric: inhibition at 20 µM (%)
Give bare numbers, in %.

What does the data say about its inhibition at 20 µM? Entry: "O=C(N/N=C/c1cc([N+](=O)[O-])ccc1Cl)c1ccc(O)c(O)c1"
6.7

# get_value(readout='inhibition at 20 µM', item= "Cc1ccccc1/C=N/NC(=O)c1cc(O)cc(O)c1" )
-6.5

Need inhibition at 20 µM of "O=C(N/N=C/c1ccccc1O)c1cc(O)cc(O)c1" , thanks.
0.6

Please find the next molecule below.
Sample "O=C(N/N=C/c1cc([N+](=O)[O-])ccc1Cl)c1cccc(Br)c1" — what was its inhibition at 20 µM?
3.1

----------
assayed.target: SARS-CoV-2 S-RBD/ACE2 interaction (UniProt P0DTC2+Q9BYF1)
test.summary: cell-based
conditions.used: HEK293 cells, 3 h incubation, n = 3; read-out: IC50 NanoBiT (inhibition of SARS-CoV-2 S-RBD/ACE2 interaction)
Kindly supply the reported pIC50 values for the records listed here.
Numbers only, as −log10 of the molar value.

I am curious: what pIC50 value has been reported for "COc1cc(-c2nc3ccccc3s2)ccc1OCC(=O)Nc1ccc(C)cc1" ?
4.06

Given "O=C(N/N=C/c1ccccc1O)c1cc(O)cc(O)c1" , state its recorded pIC50.
4.13

Endpoint output: pIC50 of "O=C(N/N=C/c1cc([N+](=O)[O-])ccc1Cl)c1cc(O)cc(O)c1" . Value?
4.57

For every listed record, write down its pIC50.
1. CCOc1ccc(N(CC(=O)Nc2ccccc2C(=O)NCc2ccco2)S(=O)(=O)c2ccc(OC)c(OC)c2)cc1
2. COc1ccc(C(=O)C[C@]2(O)C(=O)N(CCOc3ccccc3OC)c3ccccc32)c(OC)c1
3. O=C(N/N=C/c1ccc(Cl)c([N+](=O)[O-])c1)c1cc(O)cc(O)c1

1: 4.61; 2: 4.12; 3: 4.58

----------
Test system: SARS-CoV-2-S pseudovirus
test.summary: microbe, parasite or virus in culture
Assay type: cell-based
conditions.used: Pseudovirus, HEK-293T; read-out: IC50 of Anti-SARS-CoV-2-S pseudovirus
assay.metric: IC50 (µM)
Give bare numbers, in µM.

Each compound below has a recorded value; state its IC50.
1. O=C(N/N=C/c1cc([N+](=O)[O-])ccc1Cl)c1cc(O)cc(O)c1
2. COc1ccc(C(=O)C[C@]2(O)C(=O)N(CCOc3ccccc3OC)c3ccccc32)c(OC)c1
3. COc1cc(-c2nc3ccccc3s2)ccc1OCC(=O)Nc1ccc(C)cc1
4. CCOc1ccc(N(CC(=O)Nc2ccccc2C(=O)NCc2ccco2)S(=O)(=O)c2ccc(OC)c(OC)c2)cc1

[22.4, 8.37, 21.1, 70.8]

----------
assayed.target: SARS-CoV-2 S-RBD/ACE2 interaction (UniProt P0DTC2+Q9BYF1)
test.summary: cell-based
Design: species or system SARS-CoV-2 / human
conditions.used: HEK293; 50 μM
Please respond with reported inhibition at 50 µM for every item in the list.
Give bare numbers, in %.

Use the examples below as a reference point.
Value lookup for inhibition at 50 µM; key = Cc1ccccc1/C=N/NC(=O)c1cc(O)cc(O)c1 [DC-RA016-10]
-17.7

Please look up its inhibition at 50 µM: O=C(N/N=C/c1cc([N+](=O)[O-])ccc1Cl)c1ccc(O)cc1 [DC-RA016-7]
20.2

Given the entry O=C(N/N=C/c1cc([N+](=O)[O-])ccc1Cl)c1cccc(Br)c1 [DC-RA016-1] , report its measured inhibition at 50 µM.
7.4

GET /values?readout=inhibition at 50 µM&item= O=C(N/N=C/c1ccc(Cl)c([N+](=O)[O-])c1)c1cc(O)cc(O)c1 [DC-RA016-12]
88.9

Query (molecule): Cc1ccccc1C(=O)N/N=C/c1cc([N+](=O)[O-])ccc1Cl [DC-RA016-4] ; field requested: inhibition at 50 µM
-24.9

Could you tell me which inhibition at 50 µM is on file for O=C(N/N=C/c1cc([N+](=O)[O-])ccc1Cl)c1ccccc1O [DC-RA016-5] ?
24.9

Quick one: inhibition at 50 µM of O=C(N/N=C/c1cc([N+](=O)[O-])ccc1Cl)c1cccc([N+](=O)[O-])c1 [DC-RA016-3] ?
24.2

Look up inhibition at 50 µM: O=C(N/N=C/c1cc([N+](=O)[O-])ccc1Cl)c1cc(O)cc(O)c1 [DC-RA016]
73.1

# map each molecule to its inhibition at 50 µM
1. O=C(N/N=C/c1ccccc1O)c1cc(O)cc(O)c1 [DC-RA016-9]
2. O=C(N/N=C/c1cc([N+](=O)[O-])ccc1Cl)c1ccc(O)c(O)c1 [DC-RA016-8]
3. Cc1cccc(/C=N/NC(=O)c2cc(O)cc(O)c2)c1 [DC-RA016-11]
4. O=C(N/N=C/c1cc([N+](=O)[O-])ccc1Cl)c1ccc(O)cc1O [DC-RA016-6]
5. O=C(N/N=C/c1cc([N+](=O)[O-])ccc1Cl)c1ccccc1I [DC-RA016-2]

88.6
-18.3
12.7
2.9
22.5
